- experimental_system: 2-5A-dependent ribonuclease (Homo sapiens)
- procedure_summary: Inhibition of his6-tagged full length human RNase L expressed in insect cells at 250 uM incubated for 30 min by FRET assay relative to control
quantity: inhibition (%)
# number only, unit % dropped from output

Prompt: So what's the measured inhibition for this one? CCN(CC)CCNC(=O)c1c(C)[nH]c(/C=C2/OC(Nc3ccccc3)=C(C(=O)NCCNC(=O)OC(C)(C)C)C2=O)c1C
Completion: 79

Prompt: So what's the measured inhibition for this one? CCN(CC)CCNC(=O)c1c(C)[nH]c(/C=C2/SC(Nc3ccccc3)=C(C(=O)NCCN)C2=O)c1C
Completion: 101

Prompt: So what's the measured inhibition for this one? CCN(CC)CCNC(=O)c1c(C)[nH]c(/C=C2/SC(Nc3cccc(F)c3)=C(C(=O)NCCNC(=O)OC(C)(C)C)C2=O)c1C
Completion: 100

Prompt: So what's the measured inhibition for this one? CCN(CC)CCNC(=O)c1c(C)[nH]c(/C=C2/SC(Nc3cccc(OC)c3)=C(C(=O)NC)C2=O)c1C
Completion: 99

Prompt: So what's the measured inhibition for this one? CCN(CC)CCNC(=O)c1c(C)[nH]c(/C=C2/SC(Nc3cccc(Cl)c3)=C(C(=O)NCCN)C2=O)c1C
Completion: 101

Prompt: So what's the measured inhibition for this one? CCOC(=O)C1=C(Nc2cccc([N+](=O)[O-])c2)S/C(=C/c2[nH]c(C)c(C(=O)NCCN(CC)CC)c2C)C1=O
Completion: 76

Prompt: So what's the measured inhibition for this one? CCN(CC)CCNC(=O)c1c(C)[nH]c(/C=C2/SC(Nc3cccc(F)c3)=C(C(=O)NCCN)C2=O)c1C
Completion: 102

Prompt: So what's the measured inhibition for this one? CCOC(=O)C1=C(Nc2ccc(C)cc2)S/C(=C/c2[nH]c(C)c(C(=O)NCCN(CC)CC)c2C)C1=O
Completion: 83
